This collection of values is drawn from paper PMC4678828.

# target_of_assay: T1, SsoSSB wild-type (Sulfolobus solfataricus (Methods print …, UniProt Q97W73 1-148))
# T1 sequence: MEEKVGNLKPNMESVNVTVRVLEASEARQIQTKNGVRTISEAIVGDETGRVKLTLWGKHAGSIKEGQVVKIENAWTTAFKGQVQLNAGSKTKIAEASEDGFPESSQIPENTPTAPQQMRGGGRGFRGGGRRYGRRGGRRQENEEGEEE
# experimental_details: fluorescence titration (PIFE); 20 C, 10 mM KCl; Hill 1.8 ± 0.2; 50 mM Tris-HCl pH 7.6, 10 mM KCl, 5% glycerol, 0.1 mg/ml BSA, 5-50 nM DNA, 20 C (PIFE also 65 C)
# test_conditions: protein: recombinant; chain copies: 2; label: 3' Cy3 (amino); single strand
measured_endpoint: Kd (nM)
The answer is to be given in nM; state only the numeric part.

Could you share which Kd value was measured for CCCCCCCCCCCC (ssDNA) [dC12Cy3] ?
9
